Provenance of the data: patent US9295671B2

test system: A549 cells; experiment: Inhibition of cancer cell growth, MTT assay, A549; assay type: cell-based; settings: Homo sapiens, 72 h
# IC50 values compiled below

compound	obs-value
CCCS(=O)(=O)Nc1ccc(F)c(C(=O)c2ccc3nccnc3c2)c1 [Compound C15]	> 1 µM

Endpoint output: IC50 of CCCS(=O)(=O)Nc1cc(F)c(F)c(C(=O)c2ccc3ncc(N4CCOCC4)nc3c2)c1 [Compound C37] . Value?
> 1 µM

Endpoint output: IC50 of CCCS(=O)(=O)Nc1cc(F)c(F)c(C(=O)c2ccc3nccnc3c2)c1Cl [Compound C14] . Value?
> 1 µM

Endpoint output: IC50 of CCCS(=O)(=O)Nc1cc(F)cc(C(=O)c2ccc3nccnc3c2)c1 [Compound C16] . Value?
> 1 µM
